# System: MCC-26
# method description: qHTS assay to identify novel small-molecules to repurpose for Merkel cell carcinoma treatment (AID 1296009); note: nearly all actives have a fitted effect of over 60% in size
# reported conditions: MCC and control cell lines, CellTiter-Glo viability, 72 h; series mostly up to 46 µM
Results filed as inconclusive are left out. Activity calls are given as the source filed them. Calls come from the whole dose curve; as a rule, active = well fitted inhibition curve with a large enough effect; inconclusive = small, poorly fitted or top-dose-only effect; inactive = flat fitted curve, though single readings scatter.

[
  {
    "compound": "CC(=O)CC(c1ccc([N+](=O)[O-])cc1)c1c(O)c2ccccc2oc1=O (stereo unspecified)",
    "outcome": "inactive"
  },
  {
    "compound": "Oc1cc(O)c2c(c1)O[C@H](c1ccc(O)c(O)c1)[C@H](O)C2",
    "outcome": "inactive"
  },
  {
    "compound": "CC1(C)O[C@@H]2C[C@H]3[C@@H]4CCC5=CC(=O)CC[C@]5(C)[C@@]4(F)[C@@H](O)C[C@]3(C)[C@]2(C(=O)CCl)O1",
    "outcome": "inactive"
  },
  {
    "compound": "COC1=CC(=O)C[C@@H](C)[C@]12Oc1c(Cl)c(OC)cc(OC)c1C2=O",
    "outcome": "inactive"
  },
  {
    "compound": "CCCOC(C(=O)OC1CCN(C)CC1)(c1ccccc1)c1ccccc1",
    "outcome": "inactive"
  },
  {
    "compound": "C=C1C(=C/C=C2\\CCC[C@]3(C)[C@@H]([C@H](C)/C=C/[C@@H](O)C4CC4)CC[C@@H]23)C[C@@H](O)C[C@@H]1O",
    "outcome": "inactive"
  },
  {
    "compound": "NC[C@H]1O[C@H](O[C@H]2[C@H](O)[C@@H](O[C@H]3O[C@H](CO)[C@@H](O)[C@H](N)[C@H]3O)[C@H](N)C[C@@H]2N)[C@H](N)[C@@H](O)[C@@H]1O",
    "outcome": "inactive"
  },
  {
    "compound": "Cc1c(C)n(CCN(C)C)c2ccc(C(=O)OCCN(C)C)cc12",
    "outcome": "inactive"
  },
  {
    "compound": "CCCCCCCCCCCCCCCCOP(=O)([O-])OCC[N+](C)(C)C",
    "outcome": "inactive"
  },
  {
    "compound": "O=c1c(-c2ccccc2)c1-c1ccccc1",
    "outcome": "inactive"
  },
  {
    "compound": "Cc1cc2c(cc1CC(=O)c1sccc1S(=O)(=O)Nc1onc(C)c1Cl)OCO2",
    "outcome": "inactive"
  },
  {
    "compound": "CC(=O)Nc1c(I)cc(I)c(C(=O)O)c1I",
    "outcome": "inactive"
  },
  {
    "compound": "CC1(C)O[C@@H]2[C@@H](CO[C@@]3(COS(N)(=O)=O)OC(C)(C)O[C@@H]23)O1",
    "outcome": "inactive"
  },
  {
    "compound": "COc1c2occc2c(OC)c2c(=O)cc(C)oc12",
    "outcome": "inactive"
  },
  {
    "compound": "Cc1ccc(Nc2c(F)cccc2Cl)c(CC(=O)O)c1",
    "outcome": "inactive"
  },
  {
    "compound": "CC[N+](CC)(CCNC(=O)C(=O)NCC[N+](CC)(CC)Cc1ccccc1Cl)Cc1ccccc1Cl",
    "outcome": "inactive"
  },
  {
    "compound": "CCN(CC)C(=O)N1CCN(C)CC1",
    "outcome": "inactive"
  },
  {
    "compound": "CO/N=C1\\CN(c2nc3c(cc2F)c(=O)c(C(=O)O)cn3C2CC2)CC1CN (stereo unspecified)",
    "outcome": "inactive"
  },
  {
    "compound": "CC(C)(CO)[C@@H](O)C(=O)NCCCO",
    "outcome": "inactive"
  },
  {
    "compound": "COC(=O)[C@@H]1CC2=CC(=O)CC[C@]2(C)[C@@]23O[C@@H]2C[C@@]2(C)[C@@H](CC[C@@]24CCC(=O)O4)[C@H]13",
    "outcome": "inactive"
  },
  {
    "compound": "Cc1ccnc(NS(=O)(=O)c2ccc(N)cc2)n1",
    "outcome": "inactive"
  }
]

====

# Test system: Zika virus NS2B-NS3 protease
# method description: Primary screen GU AMC qHTS for Zika virus inhibitors (AID 1347154); note: nearly all actives have a fitted effect of over 70% in size
# reported conditions: Zika NS2B-NS3 unlinked protease, AMC fluorogenic substrate; series mostly up to 54.1 µM
Records with an inconclusive call do not appear. Activity calls are given as the source filed them. Calls come from the whole dose curve; as a rule, active = well fitted inhibition curve with a large enough effect; inconclusive = small, poorly fitted or top-dose-only effect; inactive = flat fitted curve, though single readings scatter.
Classes used: active, inactive

[
  {
    "chemical structure": "Nc1nc2ncc(CNc3ccc(C(=O)N[C@@H](CCC(=O)O)C(=O)O)cc3)nc2c(=O)[nH]1",
    "target desc": "Zika virus NS2B-NS3 protease",
    "qualitative label": "active"
  },
  {
    "chemical structure": "CN(C)CCOc1ccccc1Cc1ccccc1",
    "target desc": "Zika virus NS2B-NS3 protease",
    "qualitative label": "inactive"
  },
  {
    "chemical structure": "COc1ccc(/C=C/C(=O)c2ccc(OC)cc2OC)cc1",
    "target desc": "Zika virus NS2B-NS3 protease",
    "qualitative label": "inactive"
  },
  {
    "chemical structure": "CC(=O)OCC(=O)[C@@]1(O)[C@H](C)C[C@H]2[C@@H]3CCC4=CC(=O)C=C[C@]4(C)[C@@]3(F)[C@@H](O)C[C@@]21C",
    "target desc": "Zika virus NS2B-NS3 protease",
    "qualitative label": "inactive"
  },
  {
    "chemical structure": "OCc1ccccc1O",
    "target desc": "Zika virus NS2B-NS3 protease",
    "qualitative label": "inactive"
  }
]

====

# method description: qHTS of pediatric cancer cell lines to identify multiple opportunities for drug repurposing: Primary screen for NB1643 cells (AID 1347099); note: nearly all actives have a fitted effect of over 50% in size; note: potency is the fitted concentration of half-maximal effect
# reported conditions: NB1643 neuroblastoma viability, CellTiter-Glo luminescence, 48 h; series mostly up to 46 µM
# Procedure: Drug repurposing or repositioning has been offered as a strategy for drug development in oncology programs. This approach has special potential for childhood cancers and other rare or orphan diseases, where the expected return on new drug development has been a disincentive to pharmaceuticals. […] We employed a titration-based paradigm (quantitative high-throughput screening or qHTS), where all compounds were tested at multiple concentrations for their effect on cell viability. […]
Inconclusive results are not listed. The source made the active and inactive calls. Calls follow the shape of the dose curve; as a rule, active = well fitted cell-killing curve with a large enough effect; inconclusive = small, poorly fitted or top-dose-only effect; inactive = no such curve, though single readings can be large or run the other way.

[
  {
    "compound": "CN1C(CCl)Nc2cc(Cl)c(S(N)(=O)=O)cc2S1(=O)=O (stereo unspecified)",
    "Potency": "inactive"
  },
  {
    "compound": "Cc1cccn2c(=O)c(-c3nnn[nH]3)cnc12",
    "Potency": "inactive"
  },
  {
    "compound": "NC(=O)C(=O)N/N=C/c1ccc([N+](=O)[O-])o1",
    "Potency": "21.1 µM (active)"
  },
  {
    "compound": "CCCOC(C(=O)OC1CCN(C)CC1)(c1ccccc1)c1ccccc1",
    "Potency": "inactive"
  },
  {
    "compound": "CC1(C)O[C@@H]2C[C@H]3[C@@H]4C[C@H](F)C5=CC(=O)C=C[C@]5(C)[C@H]4[C@@H](O)C[C@]3(C)[C@]2(C(=O)CO)O1",
    "Potency": "inactive"
  },
  {
    "compound": "O=S1(=O)c2cccc3cccc(c23)N1CCCN1CCN(c2ccc(F)cc2)CC1",
    "Potency": "inactive"
  },
  {
    "compound": "C[n+]1c2cc(N)ccc2cc2ccc(N)cc21 (tested in a mixture with another compound)",
    "Potency": "7.5 µM (active)"
  },
  {
    "compound": "COc1c2occc2c(OC)c2c(=O)cc(C)oc12",
    "Potency": "inactive"
  },
  {
    "compound": "CC(O)(P(=O)(O)O)P(=O)(O)O",
    "Potency": "inactive"
  },
  {
    "compound": "C[C@@H]1CN(CCCn2c3ccccc3c3ccccc32)C[C@H](C)N1",
    "Potency": "inactive"
  },
  {
    "compound": "OCc1ccccc1O",
    "Potency": "inactive"
  }
]

====

# Tested on: JCK
# method description: qHTS profiling for inhibitors of Plasmodium falciparum proliferation (AID 504749); note: nearly all actives have a fitted effect of over 60% in size
# reported conditions: P. falciparum in erythrocytes, SYBR Green DNA, 72 h; series mostly up to 28.7 µM
Results filed as inconclusive are left out. The source made the active and inactive calls. The call rests on the fitted dose curve; in most records, active means well fitted inhibition curve with a large enough effect; inconclusive means small, poorly fitted or top-dose-only effect; inactive means flat fitted curve, though single readings scatter.
Classes used: active, inactive

[
  {
    "chemical structure": "O=C(N/N=C/c1ccccc1O)c1ccncc1",
    "qualitative label": "inactive"
  },
  {
    "chemical structure": "C[C@]12CCC(=O)C=C1CC[C@H]1[C@@H]3CC[C@](O)(C(=O)CO)[C@@]3(C)C[C@H](O)[C@@]12F",
    "qualitative label": "inactive"
  },
  {
    "chemical structure": "CCN(CC)C(=O)/C(C#N)=C/c1cc(O)c(O)c([N+](=O)[O-])c1",
    "qualitative label": "inactive"
  },
  {
    "chemical structure": "C[C@H](O)C(=O)Nc1c(I)c(C(=O)NC(CO)CO)c(I)c(C(=O)NC(CO)CO)c1I",
    "qualitative label": "inactive"
  },
  {
    "chemical structure": "COc1cc(NS(C)(=O)=O)ccc1Nc1c2ccccc2nc2ccccc12",
    "qualitative label": "active"
  }
]
